- experimental_target: T1, TTERecF-ATP dimer (Thermoanaerobacter tengcongensis MB4, UniProt Q8RDL3 1-364)
- T1 sequence: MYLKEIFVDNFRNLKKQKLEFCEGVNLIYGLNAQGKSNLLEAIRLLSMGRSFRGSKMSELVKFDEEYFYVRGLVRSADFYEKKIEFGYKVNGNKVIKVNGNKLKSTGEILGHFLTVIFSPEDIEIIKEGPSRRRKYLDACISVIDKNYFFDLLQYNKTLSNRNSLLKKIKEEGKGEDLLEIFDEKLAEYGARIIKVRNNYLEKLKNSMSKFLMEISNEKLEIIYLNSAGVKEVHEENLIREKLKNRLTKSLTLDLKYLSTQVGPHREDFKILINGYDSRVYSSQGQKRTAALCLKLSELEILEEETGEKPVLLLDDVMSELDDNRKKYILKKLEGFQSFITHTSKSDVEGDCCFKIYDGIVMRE
- assay_procedure: BLI; ATP (1 mM in preincubation); kd 1.44E-03 s-1; BLI: 20 mM Tris-HCl pH 7.0, 200 mM NaCl, 0.05% Tween 20, 25 C; biotinylated DNA on streptavidin sensors; no Mg2+ stated
- measurement_context: protein: recombinant; tags: N-terminal His6; chain copies: 2; label: 5' biotin
pKd: −log10 of the molar value.
test_readout: pKd

                                     binder  test_readout  recorded_value
0  ACCTTATGGAAAGCATCGTAG (ssDNA) [21mer ssDNA]           pKd            7.80
